Molecular target: MAGL (Homo sapiens)
Sequence (Q99685 whole entry): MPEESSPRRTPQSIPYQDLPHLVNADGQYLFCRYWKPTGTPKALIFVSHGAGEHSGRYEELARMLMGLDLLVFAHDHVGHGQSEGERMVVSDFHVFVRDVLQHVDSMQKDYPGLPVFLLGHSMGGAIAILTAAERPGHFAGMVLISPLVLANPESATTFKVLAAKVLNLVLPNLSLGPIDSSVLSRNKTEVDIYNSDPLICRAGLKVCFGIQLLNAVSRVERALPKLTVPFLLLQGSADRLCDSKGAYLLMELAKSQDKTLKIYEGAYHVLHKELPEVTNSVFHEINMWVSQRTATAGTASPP
Experiment: Fluorescence polarization titration of probe 5 with purified hMAGL
Type: binding
Conditions: FP titration, probe 20 nM
Reported Metric: Kd (nM)
Form entry: value (nM) — number only.

Any idea what its Kd is? The molecule is O=C(N1CC2(CC(CC3=C4C=CC=[N+]4[B-](F)(F)n4cccc43)C2)C1)N1CC2(CC(n3cnc(C4CC4)n3)C2)C1 6.65

====

Biological target: UniProt Q99685
Test: Native MS (RapidFire) 2-AG substrate assay, purified human MAGL
Type: biochemical
Settings: purified human MAGL, native MS substrate assay; IC50 of covalent inhibitors time-dependent; read-out: IC50 hMAGL
Quick rule for you: IC50 under 0.7 nM gets True, anything else gets False.

Smiles Structure	Assigned Class
O=C(N1CC2(CC(CC3=C4C=CC(c5ccc[nH]5)=[N+]4[B-](F)(F)n4cccc43)C2)C1)N1CC2(CC(n3cnc(C4CC4)n3)C2)C1	False

Threshold test, IC50 < 0.7 nM: O=C1CO[C@H]2CCN(C(=O)N3CC4(CC(CC5=C6C=CC=[N+]6[B-](F)(F)n6cccc65)C4)C3)C[C@H]2N1 False

Try this compound next: O=C(O[C@H](CO)C(F)(F)F)N1CC2(CC(CC3=C4C=CC(c5ccc[nH]5)=[N+]4[B-](F)(F)n4cccc43)C2)C1 True

Try this compound next: O=C1NC2(CO1)CN(C(=O)N1CC3(CCC(CC4=C5C=CC=[N+]5[B-](F)(F)n5cccc54)CC3)C1)C2 False

Try this compound next: O=C(O[C@H](CO)C(F)(F)F)N1CC2(CC(CC3=C4C=CC=[N+]4[B-](F)(F)n4cccc43)C2)C1 True

Try this compound next: O=C1CO[C@H]2CCN(C(=O)N3CC4(CC(CC5=C6C=CC(c7ccc[nH]7)=[N+]6[B-](F)(F)n6cccc65)C4)C3)C[C@H]2N1 True
